Biological target: Islet amyloid precursor polypeptide, IAPP (Homo sapiens, UniProt P10997)
Construct: Purified synthetic peptides corresponding to IAPP (Bachem, Weil am Rhein, Germany); purchased Bachem, Weil am Rhein, Germany; host or cells: synthetic peptide
Sequence (P10997 34-70 limits assumed): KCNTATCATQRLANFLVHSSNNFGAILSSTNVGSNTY
Experiment: In vitro assembly assay (thioflavin T fluorescence, with or without air-water interface), IAPP
Type: biochemical
Conditions: lag phase; ratio of IC50 with air-water interface (+AWI) to IC50 without (−AWI); IAPP at 4 μM
Ratio IAPP IC50 (μm) +AWI/−AWI Lag phase strictly less than 4 = t. Otherwise f.

These recorded examples may help you get a feel for the data.
Cc1cc(C)c2ccc(/C=C/c3cccc([N+](=O)[O-])c3)nc2c1O [Compound 234] :: f
COc1cc(/C=C/c2ccc3c(C)cc(C)c(O)c3n2)ccc1O [Compound 238] :: f
Cc1cc(C)c2ccc(/C=C/C3CCCCC3)nc2c1O [Compound 245] :: f
COc1ccc(/C=C/c2ccc3c(C)cc(C)c(O)c3n2)cn1 [Compound 312] :: t
Cc1cc(C)c2ccc(/C=C/c3ccccc3N)nc2c1O [Compound 131] :: f
Cc1cc(C)c2ccc(/C=C/c3ccccc3O)nc2c1O [Compound 214] :: f

Bench note: check whether Cc1cc(C)c2ccc(/C=C/c3ccc(Br)cc3)nc2c1O [Compound 252] shows Ratio IAPP IC50 (μm) +AWI/−AWI Lag phase below 4
t

In the record for Cc1cc(C)c2ccc(/C=C/c3ccc(OC(F)(F)F)cc3)nc2c1O [Compound 239] , is Ratio IAPP IC50 (μm) +AWI/−AWI Lag phase less than 4?
f

Strictly below 4: is that where Ratio IAPP IC50 (μm) +AWI/−AWI Lag phase of Cc1cc(C)c2ccc(/C=C/c3cccc(O)c3)nc2c1O [Compound 227] sits?
f

Does this compound meet the criterion Ratio IAPP IC50 (μm) +AWI/−AWI Lag phase < 4? Cc1cc(C)c2ccc(/C=C/c3cccnc3N3CCNCC3)nc2c1O [Compound 325]
t

I'd appreciate it if you could check whether Cc1cc(C)c2ccc(/C=C/c3ccc4c(c3)OCO4)nc2c1O [Compound 241] has Ratio IAPP IC50 (μm) +AWI/−AWI Lag phase smaller than 4.
t

----------
Target: Islet amyloid precursor polypeptide, IAPP (Homo sapiens, UniProt P10997)
Construct: Purified synthetic peptides corresponding to IAPP (Bachem, Weil am Rhein, Germany); purchased Bachem, Weil am Rhein, Germany; host or cells: synthetic peptide
Sequence (P10997 34-70 limits assumed): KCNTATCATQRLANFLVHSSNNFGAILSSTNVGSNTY
Test: In vitro assembly assay (thioflavin T fluorescence, with or without air-water interface), IAPP
Assay type: biochemical
Settings: elongation rate; ratio of IC50 with air-water interface (+AWI) to IC50 without (−AWI); IAPP at 4 μM
measure: Ratio IAPP IC50 (μm) +AWI/−AWI elongation
Output: the number by itself.

Below are worked cases with known answers.
Cc1cc(C)c2ccc(/C=C/c3ccc(N4CCNCC4)nc3)nc2c1O :: 4
Cc1cc(C)c2ccc(/C=C/c3ccc(N4CCOCC4)nc3)nc2c1O :: 2.5
Cc1cc(C)c2ccc(/C=C/c3ccccc3N)nc2c1O :: 4
Cc1cc(C)c2ccc(/C=C/c3cccnc3C)nc2c1O :: 1
Cc1cc(C)c2ccc(/C=C/c3ccccc3[N+](=O)[O-])nc2c1O :: 3

Alright, here's another compound for you.
Reported Ratio IAPP IC50 (μm) +AWI/−AWI elongation, compound Cc1cc(C)c2ccc(/C=C/c3ccc(Br)cc3)nc2c1O : ____
3

----------
Molecular target: Abeta1-40 (Homo sapiens, UniProt P05067)
Construct: Abeta1-40 at 12 μM, final concentration; purchased EZBiolab, Carmel, Ind., USA; host or cells: synthetic peptide
Sequence (P05067 672-711 limits assumed): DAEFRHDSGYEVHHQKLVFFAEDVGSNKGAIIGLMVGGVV
Assay: In vitro assembly assay (thioflavin T fluorescence), screen against Amyloid-beta (Aβ) peptides
Type: biochemical
Details: Abeta1-40 at 12 μM
measure: Active against Aβ

Answered examples (5):
Cc1cc(C)c2ccc(/C=C/C3CCCCC3)nc2c1O :: ✓
Cc1cc(C)c2ccc(/C=C/c3cccc(O)c3)nc2c1O :: ✓ (rate)
Cc1cc(C)c2ccc(/C=C/c3cccc(C#N)c3)nc2c1O :: ✓
Cc1cc(C)c2ccc(/C=C/c3ccc4c(c3)OCO4)nc2c1O :: No
Cc1cc(C)c2ccc(/C=C/c3cccnc3)nc2c1O :: ✓

Which Active against Aβ reading was recorded for the compound Cc1cc(C)c2ccc(/C=C/c3ccccc3O)nc2c1O ?
✓ (rate)

Any idea what its Active against Aβ is? The compound is Cc1cc(C)c2ccc(/C=C/c3cc(C(=O)O)ccc3O)nc2c1O
✓

What does the data say about its Active against Aβ? Entry: Cc1cc(C)c2ccc(/C=C/c3ccccc3C#N)nc2c1O
✓ (rate)

----------
A collection of compounds and their measured Ratio IAPP IC50 (μm) +AWI/−AWI Lag phase
Target: Islet amyloid precursor polypeptide, IAPP (Homo sapiens, UniProt P10997)
Construct: Purified synthetic peptides corresponding to IAPP (Bachem, Weil am Rhein, Germany); purchased Bachem, Weil am Rhein, Germany; host or cells: synthetic peptide
Sequence (P10997 34-70 limits assumed): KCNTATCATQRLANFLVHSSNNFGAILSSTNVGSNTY
Test: In vitro assembly assay (thioflavin T fluorescence, with or without air-water interface), IAPP
Format: biochemical
Details: lag phase; ratio of IC50 with air-water interface (+AWI) to IC50 without (−AWI); IAPP at 4 μM
When you answer, write just the number.

Cc1ccc(/C=C/c2ccc3c(C)cc(C)c(O)c3n2)cn1 :: 4

May I ask what Ratio IAPP IC50 (μm) +AWI/−AWI Lag phase has been recorded for Cc1cc(C)c2ccc(/C=C/c3cccnc3Cl)nc2c1O ?
4

Consider the compound Cc1cc(C)c2ccc(/C=C/c3ccc(N4CCNCC4)nc3)nc2c1O and give its measured Ratio IAPP IC50 (μm) +AWI/−AWI Lag phase.
21

Using the record for Cc1cc(C)c2ccc(/C=C/c3cccc(C#N)c3)nc2c1O , report its Ratio IAPP IC50 (μm) +AWI/−AWI Lag phase.
21

----------
Molecular target: Islet amyloid precursor polypeptide, IAPP (Homo sapiens)
Construct: Purified synthetic peptides corresponding to IAPP (Bachem, Weil am Rhein, Germany); purchased Bachem, Weil am Rhein, Germany; host or cells: synthetic peptide
Assay: In vitro assembly assay (thioflavin T fluorescence, with or without air-water interface), IAPP
Type: biochemical
Settings: elongation rate; ratio of IC50 with air-water interface (+AWI) to IC50 without (−AWI); IAPP at 4 μM
Entries and their Ratio IAPP IC50 (μm) +AWI/−AWI elongation values follow.

Reference set, count: 2
Cc1cc(C)c2ccc(/C=C/c3ccccc3C#N)nc2c1O :: 32
Cc1cc(C)c2ccc(/C=C/c3ccc(OC(F)(F)F)cc3)nc2c1O :: 32

Kindly review the next compound as well.
Hi! What's the reported Ratio IAPP IC50 (μm) +AWI/−AWI elongation for COc1cc(/C=C/c2ccc3c(C)cc(C)c(O)c3n2)ccc1O on Islet amyloid precursor polypeptide, IAPP (Homo sapiens)?
4

----------
Biological target: Islet amyloid precursor polypeptide, IAPP (Homo sapiens, UniProt P10997)
Construct: Purified synthetic peptides corresponding to IAPP (Bachem, Weil am Rhein, Germany); purchased Bachem, Weil am Rhein, Germany; host or cells: synthetic peptide
Assay: In vitro assembly assay (thioflavin T fluorescence, with or without air-water interface), IAPP
Format: biochemical
Settings: lag phase; ratio of IC50 with air-water interface (+AWI) to IC50 without (−AWI); IAPP at 4 μM
Overview of recorded Ratio IAPP IC50 (μm) +AWI/−AWI Lag phase for various compounds
Give the figure by itself; no unit, no explanation.

Cc1cc(C)c2ccc(/C=C/c3ccc(O)c(O)c3)nc2c1O :: 32

Endpoint output: Ratio IAPP IC50 (μm) +AWI/−AWI Lag phase of Cc1cc(C)c2ccc(/C=C/c3cccnc3N)nc2c1O . Value?
3

// Ratio IAPP IC50 (μm) +AWI/−AWI Lag phase lookup, key: Cc1cc(C)c2ccc(/C=C/c3cccnc3)nc2c1O
32

For the compound Cc1cc(C)c2ccc(/C=C/c3ccc(N4CCOCC4)nc3)nc2c1O , what Ratio IAPP IC50 (μm) +AWI/−AWI Lag phase is on record?
11

This collection of values is drawn from patent US9822078B2.
